Test system: MS2 coat protein
Experiment: apparent KD of MS2 coat protein; designed switch direction (-1 OFF switch, 1 ON switch): -1; higher = weaker reporter binding
Conditions: input ligand: none
Recorded measurements of apparent KD of MS2 coat protein, one per entry
Observed Property: apparent KD of MS2 coat protein (nM)

sequence_text="AUUAUACAUGAGGAUCACCCAUGUGAGGAUAUCCGCAGCACAGGCAGAGUCGGUUGCAGGAGAAGGCACUCCUC [Eternabot (L1) Solution 57] (Eterna round: R97, puzzle: Exclusion 1)" value_units=nM test_result=44.4
sequence_text="CGGCAAUCCAAGGAUAUGCUAGACGAAAGUCUAGCAGAAGGUGGAACAUGAGGAUCACCCAUGUGUCCAAGCCG [Eli x6 4.04] (Eterna round: R97, puzzle: Exclusion 6)" value_units=nM test_result=15.3
sequence_text="UAUGUCUCAGGAGGAUAUCUCCCGGUUGCCGUUAGAGAAGGCUUGAAACAUGAGGAUCACCCAUGUAAAUGGCCCGUCCUCCAA [Atsodibian] (Eterna round: R96, puzzle: Exclusion NG 1)" value_units=nM test_result=14.7
sequence_text="AGAUGCUUAAGUCGACAUGAGGAUCACCCAUGUACAGUUAACGAGGAUAUCCGAGAUAAAUAAUAGGAGAAGGCGUGAUCAUGA [Ex NG3 #2] (Eterna round: R96, puzzle: Exclusion NG 3)" value_units=nM test_result=277
sequence_text="CGGGCCGGCCUUCCGGCCGGCCCGACAUGAGGAUCACCCAUGUAGGAUAUCCCGGCUGCCGGCCGGGAGAAGGGCGUGCGUCCG [-50.4, -49.4 kcal, 14% A] (Eterna round: R96, puzzle: Exclusion NG 3)" value_units=nM test_result=137
sequence_text="ACAUGACUGCUAGGAUAUAGAUGACAUGAGGAUCACCCAUGUUGUCCCAUGUUUAUGGAAACGGACUAGAAGGAGCAGCAUAUG [Ex NG2 #12] (Eterna round: R96, puzzle: Exclusion NG 2)" value_units=nM test_result=30.2
sequence_text="GAACGUGGUGAGGAUAUCCGGUCUAACGUGCCAGGAGAAGGCGCCACAUGAGGAUCACCCAUGUGGGUCCCGCC [EX6 B.9] (Eterna round: R97, puzzle: Exclusion 6)" value_units=nM test_result=14.9
sequence_text="AGUUGGCGAGGAUAUACAUGAGGAUCACCCAUGUGAAGAAGAAUAGUGAGGAAGAAAAGUAGAAGGCGCUGACA [Mat - Exclusion 3 - Mod of Salish D37] (Eterna round: R96, puzzle: Exclusion 3)" value_units=nM test_result=48.5
sequence_text="AUUGUUUGAUACCUCUAAUACAUGAGGAUCACCCAUGUUAUCGAGGAUAUGUAGAAGAGAGGAGAACAGAAGGCGAAGUAAGAG [JR_ExcNG3_Sub095] (Eterna round: R96, puzzle: Exclusion NG 3)" value_units=nM test_result=17.7
